Target: T1, hFc-tagged NKG2A/CD94 protein (NKG2A/CD94-hFc), immunogen A (human, UniProt P26715 94-233; Q13241 32-179, biotin-labeled in the Octet assays (site not stated))
T1 construct: Heterodimer of the extracellular domains of NKG2A and CD94, each with hFc; also called human-derived NKG2A/CD94-ECD-Fc; hNKG2A/CD94-ECD-Fc; not shown: human IgG Fc fragment (hFc) of the pCpC vector
T1 sequence (P26715 94-233 limits assumed, chain 1 of 2): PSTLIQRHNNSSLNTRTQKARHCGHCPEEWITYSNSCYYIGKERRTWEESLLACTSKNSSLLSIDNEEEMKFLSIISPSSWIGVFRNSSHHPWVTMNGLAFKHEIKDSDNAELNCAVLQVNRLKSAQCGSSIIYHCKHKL
T1 sequence (Q13241 32-179 limits assumed, chain 2 of 2): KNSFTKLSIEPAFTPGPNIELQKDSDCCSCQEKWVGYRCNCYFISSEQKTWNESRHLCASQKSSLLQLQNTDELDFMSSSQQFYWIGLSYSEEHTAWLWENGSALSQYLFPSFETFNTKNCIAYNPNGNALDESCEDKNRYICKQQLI
Assay: BLI (Octet red96), biotinylated immunogen A on streptavidin sensor, antibody in solution
OUTCOME_MEASURE: kon (M⁻¹ s⁻¹)
// units = M⁻¹ s⁻¹; emit number, no label

Problem: Returns the measured kon for the input binder. Input: Mab031 (antibody, V domains shown) VH: EVQLQQSVAELVRPGASVRLSCTGSGFNIQNTYIHWVKQRPEQGLEWIGRIDPANGDTKYAPKFQGKATITADTSSNTAYLQLSSLTSEDTAIYYCTRYGNYLYYYSLDYWGQGTSVTVSS VL: DIVMTQAAPSVPVTPGESVSISCRSSKSLLHSNGNTYLYWFLQRPGQSPQLLIYRMSNLASGVPDRFSGSGSGTAFTLRISRVEAEDMGVYYCMQHLEYPYTFGGGTKLEIK
Solution: 1.02e+06

The origin of these recorded values is patent US20220259306A1.
